Tested on: DMS-273
assay.overview: NCI tumour cell line growth inhibition, 48 h
Active and inactive are the calls of the source. Cut-off read from the data, not from the text of the source: active = GI50 up to about 1.1 µM and inactive = higher.
Respond only with the outcome that fits, drawn from active, inactive

Please state the recorded outcome for this compound: CC(C)=CC(=O)OC1C2C(C)=CC(=O)C(O)C2(C)C2C3(O)OCC24C(CC(=O)OC14)C(C)C3O (centres undefined) active

Please state the recorded outcome for this compound: CCCOP(=S)(N1CC1)N1CC1 inactive

Please state the recorded outcome for this compound: COc1ccc(Cc2c3cc(O)c([O-])cc3cc[n+]2C)cc1 inactive

Please state the recorded outcome for this compound: Cc1c2ccnc(O)c2cc2c(=O)c3cnccc3[nH]c12 inactive

Please state the recorded outcome for this compound: O=C1OC(c2ccccc2)=N/C1=C/NC(Cc1ccccc1)C(=O)O (centres undefined) inactive

Please state the recorded outcome for this compound: N#Cc1cc([N+](=O)[O-])ccc1NC(=O)/C(=N\NC(=O)c1ccncc1)C(c1cnc2ccc([N+](=O)[O-])cc2n1)[N+](=O)[O-] (centres undefined) inactive

Please state the recorded outcome for this compound: Nc1ncnc2c1ncn2C1C(O)C=C(CO)C1O (centres undefined) inactive

Please state the recorded outcome for this compound: Cc1cccc(N2C(=O)C(=O)C(c3nc4ccccc4s3)C(=O)C2=O)c1C inactive

Please state the recorded outcome for this compound: c1ccc2c(CNCCCCCCCCCCCCNCc3cccc4ccccc34)cccc2c1 inactive

* * *

System: CAKI-1
assay.overview: NCI tumour cell line growth inhibition, 48 h
Activity calls are given as the source filed them. Cut-off read from the data, not from the text of the source: active = GI50 up to about 1.1 µM and inactive = higher.
measure: GI50

What does the record list as GI50 for OC1CCCN(C2(c3cccs3)CCCCC2)C1 (stereo unspecified) ? > 100 µM (inactive)

What does the record list as GI50 for CCOC(=O)Cn1nnc2ccc(Nc3nc4ccccc4nc3-c3ccccc3)cc21 ? > 100 µM (inactive)

What does the record list as GI50 for COC(=O)N1C[C@@]2(C=CC3(CC2)OCCO3)c2ccccc21 ? > 100 µM (inactive)

What does the record list as GI50 for Cn1c(=O)c2nc(SCCN3CCOCC3)[nH]c2n(C)c1=S ? > 100 µM (inactive)

What does the record list as GI50 for CCOC(=O)c1cn(Cc2ccccc2)c(=O)n1Cc1ccccc1 ? 77.1 µM (inactive)

What does the record list as GI50 for O=Cc1coc2ccccc2c1=O ? 19.2 µM (inactive)

* * *

I'd be grateful if you could share measured GI50 for these entries.
Tested on: SK-MEL-5
assay.overview: NCI tumour cell line growth inhibition, 48 h
The source made the active and inactive calls. Cut-off read from the data, not from the text of the source: active = GI50 up to about 1.1 µM and inactive = higher.

What does the record list as GI50 for C/C(CN1C(=O)c2ccccc2C1=O)=N\NS(=O)(=O)c1cccc([N+](=O)[O-])c1 ? > 100 µM (inactive)

What does the record list as GI50 for Cc1nn(C(=O)c2ccc(Cl)cc2)c2c1C(c1ccccc1O)SC(=N)N2 (stereo unspecified) ? > 10 µM (inactive)

What does the record list as GI50 for CS(=O)(=O)Nc1ccc2ccccc2c1 ? > 100 µM (inactive)

What does the record list as GI50 for CN(C)CCCNC(=S)S ? > 100 µM (inactive)

What does the record list as GI50 for Cc1c(CN2CCOCC2)c(CN2CCOCC2)c(C)n1-c1ccc(Cl)cn1 ? > 100 µM (inactive)

What does the record list as GI50 for OCc1cc2c(cn1)[nH]c1ccc(NCc3ccccc3)cc12 ? 12.2 µM (inactive)

What does the record list as GI50 for CC1=NN(C(=O)Cc2ccccc2)C(=O)/C1=C\c1ccc([N+](=O)[O-])cc1 ? > 100 µM (inactive)

What does the record list as GI50 for CN(C)/C=C/C(=O)c1cccc(C(=O)/C=C/N(C)C)n1 ? > 100 µM (inactive)

What does the record list as GI50 for CC(NC(=O)C(N)CC(=O)O)NC(=O)N1CCCC1 (stereo unspecified) ? > 100 µM (inactive)

What does the record list as GI50 for CCCCNC(=S)Nc1nc(C(=O)NNC(=S)NCc2ccccc2)cs1 ? 16.3 µM (inactive)

What does the record list as GI50 for N#Cc1ccc(Oc2nc3ccccc3nc2-c2ccccc2)cc1 ? > 100 µM (inactive)

These entries and their values trace back to ChEMBL document CHEMBL1201862.
